The following proteins are listed with their measured Enzyme Activity Endpoint Assay (purified): Fc values.
molecular target: pooled human IgG (human IgG1, 2, 3 and 4)
experimental.readout: Enzyme Activity Endpoint Assay (purified): Fc (ng/µL)

protein	unit.of.measure	value
PRT-660 (protein) MQITSVWTKGVTPLTPEQFRYNNEDVIHAPYLAHQGWYDITKAFDGKDNLLCGAATAGNMLHWWFDQNKTEIEAYLSKHPEKQKIIFNNQELFDLRKAINTKDDQKESALFNYFRKKAFPNLSARQLGVMPDLVLDMFINGYYLNVFKTQSTDVNRPYQDKDKRGGIFDAVFTRGDQTTLLTARHDLKNKGLNDISTIIKQELTEGRALALSHTYANVSISHVINLWGADFNAEGNLEAIYVTDSDANASIGMKKYFVGINAHGHVAISAKKIEGENIGAQVLGLFTLSSGKDIWQKLSLEHHHHHH	ng/µL	320
PRT-445 (protein) MSQTEDSESLQRLRDIEDFQAEKKKQNVVYTKWLDGVDVKDHDFRKIVDGNIAYYATPLLNGRGFYDINKDFNRDSDKCAAAVAANMFHYWLDRNRDNVDRFLRQNPEKHGIIELPDGQLKLSDFLNTYESDDGYRDKSKLFDFISNNFNGPVWTDKLLDNYINGYAYNYKYGRTIEDSTKNTSKINFFKEVFNEKILTNNHSIRNQNEFSVLLSEALYTGKAIGLSYGPAGLRHSLGHIISVWGADLDADGNVVAIYVTDSDDKKLTIGDERVGLKRYKISTDDEGRLRLTAYEETHNTGGQIRGLWTLDTGKQAWADYFDKTEQTGTDQAEQ	ng/µL	330
PRT-609 (protein) MQITSVWTKGVTPLTPEQFRYNNEDVIHAPYLAHQGWYDITKAFDRGDNLLCGAATAGNMLHWWFDQNKTEIEAYLSKHPEKQKIIFNNQELFDLKAAIDTKDSQTNSQLFNYFRDKAFPNLSARQGGVMPDLVLDMFINGYYLNVFKTQSTDVNRPYQDKDKRGGIFDAVFTRGDQTTLLTARHDLKNKGLNDISTIIKQELTEGRALALSHTYANVSISHVINLWGADFNAEGNLEAIYVTDSDADEKIGMKKYFVGINAHGHVAISAKKIEGENIGAQVLGLFTLSSGKDIWQKLSLEHHHHHH	ng/µL	216
PRT-420 (protein) MTITSVWTKGVTPPTPEDFRYNNEDVLHAPYVANQGWYDITKTFDGKDNLLCGAATAGNMLHWWFDQNKEEIERYLKKHPEKQKIIFNNQEWFDVKAAIDTKDSQTNSKLFNYFRDKAFPNLSARQLGVMPDLVLDMFINGYYLNLGKTQSTDVNRPYQDKDKRGGIFDAVFTRGDQTTLLTARHDLKNKGLNEISDLIKQELTEGKALALSHTYANVRINHVINLWGADFDAEGNLIAIYVTDSDANASIGMKKYFVGVNANGKVAISAKKIEGDNIGAQVLGLFTLSTGQDIWQKLS	ng/µL	300
